Recorded values, source PubChem BioAssay (NCI).

Listed here are compounds together with their documented growth inhibition.
Method: NCI Yeast Anticancer Drug Screen. Data for the rad14 strain (AID 159);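 further: 0% = growth of vehicle-treated control cultures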
Test Settings: S. cerevisiae rad14 strain growth inhibition; at 3.7 µM; active compounds read high
The panel holds about 79,000 compounds, 15% with a hit somewhere; the sample as a whole holds those more often.
Numbers only here, please. The scale is %.

> print(dat)
                                   compound  recorded.result
1  CCCCCCC(O)CNCc1ccnc2ccc(OC)cc12 (centres undefined)               32

Bench note: what growth inhibition did "CCCCOP(=O)(CCCP(=O)(OCCCC)OCCCC)OCCCC" show?
3

Which growth inhibition is reported for this compound? "Cc1cc(N(CCOS(C)(=O)=O)CCOS(C)(=O)=O)ccc1C=Nc1ccc(-c2nc(Cc3ccccc3)sc2C)cc1"
38

Look up growth inhibition: CC(=O)SC(C[N+](=O)[O-])c1ccccc1 (centres undefined)
28

Which growth inhibition value belongs to "N/C(=N/N=C/c1cc(Br)cc(Br)c1O)NO" ?
-1

---

// values below are reported growth inhibition
Method: NCI Yeast Anticancer Drug Screen. Data for the mlh1 rad18 strain (AID 175)
Test Settings: S. cerevisiae mlh1 rad18 strain growth inhibition; at 5.0 µM (retest, dose inferred, filed as 0.5); active compounds read high
About 79,000 compounds went through this panel and 15% of them were active in at least one assay; those are over-represented in the sample as a whole.
Just the number please, in %, no unit attached.

Known results for compounds:
Compound	Measured Property	Result Units	Recorded Result
CC(C)/C(Cl)=N\OC(=O)Nc1ccc(F)cc1F	growth inhibition	%	-29
CC1OC(O[C@H]2/C=C/C=C/C=C/C=C/C=C/C=C/C=C/[C@H](C)[C@@H](O)[C@@H](C)[C@H](C)OC(=O)C[C@H](O)C[C@H](O)CC[C@@H](O)[C@H](O)C[C@H](O)C[C@]3(O)C[C@H](O)[C@@H](C(=O)O)[C@H](C2)O3)C(O)C(N)C1O (some centres undefined)	growth inhibition	%	47
CCOC(=O)/C(=C\c1ccc(C#N)cc1)C(C)=O	growth inhibition	%	-9

Param item = Cc1ccc(NC(c2ccccc2)c2ccc3cccnc3c2O)cc1 (centres undefined) ; retrieve measured growth inhibition.
5

---

Method: NCI Yeast Anticancer Drug Screen. Data for the sgs1 strain (AID 173);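 further: 0% = growth of vehicle-only control cultures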
Test Settings: S. cerevisiae sgs1 mutant, at 33.0 µM, active compounds read high
About 79,000 compounds went through this panel and 15% of them were active in at least one assay; those are over-represented in the sample as a whole.
Measured Property: growth inhibition (%)
Form entry: value (%) — number only.

> print(dat)
                                   molecule  measured.property  recorded.result
1  CCC(C)NC1=NCC(C)S1 (configuration not stated)  growth inhibition              -38

For the molecule "Cc1nc(-c2cc3cc([N+](=O)[O-])ccc3oc2=O)cs1" , what growth inhibition is on record?
62

Fill blank: measured growth inhibition of the molecule "N/C(=N/N=C/c1cc(Br)cc(Br)c1O)NO" is ____.
93

Param item = "CCN(CC)CCN(C)CCc1ccc(Br)cc1" ; retrieve measured growth inhibition.
85

Name the reported growth inhibition value associated with the molecule Oc1ccc2c(c1)C(O)CCCC2 (configuration not stated)
43

Name the recorded growth inhibition for "CN(C)c1ccc(N=Nc2ccncc2)cc1" .
67

GET /values?readout=growth inhibition&item= "Cc1ccc2nc(-c3cccc([N+](=O)[O-])c3)oc(=O)c2c1"
-18

Bench note: what growth inhibition did "O=C1c2ccccc2C(=O)c2cc(CCl)ccc21" show?
11

// query growth inhibition value for entry "CCOC(=N)c1ccc(O)c(OC)c1"
-3

Look up growth inhibition for this molecule: "Cc1cc(NCCCCCCCCNc2cc(C)nc3cc(N)ccc23)c2ccc(N)cc2n1"
95

Give the measured growth inhibition of "COc1ccc(C(=O)c2ccccc2C(=O)c2ccccc2OC)cc1" .
9

What measured growth inhibition goes with "Cc1cc(C)nc(NS(=O)(=O)c2ccc(Nc3c4ccccc4nc4c(C(=O)NCCO)cccc34)cc2)n1" ?
2
